TARGET OR SYSTEM: Platelet-derived growth factor receptor (Mus musculus)
PROTOCOL NOTES: The cells were stimulated with PDGF (100 ng/mL) for 10 min at room temperature. Then the cell lysates were analyzed by SDS-PAGE and immunoblotting with anti-phosphotyrosine antibodies. Quantification of IC50 values was based on the intensity of the signal for autophosphorylated PDGF receptor. Titration was done using four to ei
CONDITION DESCRIPTION: pH 7.4
RECORDED ENDPOINT: IC50 (µM)

[[record]]
line_notation = "COc1ccc2[nH]c(C(=O)c3cc4cc(OC)ccc4[nH]3)cc2c1"
target_or_system = "Platelet-derived growth factor receptor (Mus musculus)"
unit_spec = "µM"
experimental_value = 20


[P] O=C(c1cc2ccccc2[nH]1)c1cc2cc(OCCCCI)ccc2[nH]1
[Q] O=C(c1cc2ccccc2[nH]1)c1cc2cc(OCc3ccccc3)ccc2[nH]1
Smaller IC50 value, P vs Q ? Your choice should be expressed through its label. P
(P: 12.5 µM, Q: 20 µM)
